Test: isobaric coefficient of expansion
Settings: 278.15 K; 40000 kPa; Liquid; Micro DSCII
property-measured: isobaric coefficient of expansion

Field: isobaric coefficient of expansion. Fill in for each record below.
1. CCCC[n+]1ccn(C)c1.O=S(=O)([N-]S(=O)(=O)C(F)(F)F)C(F)(F)F
2. CCCCn1cc[n+](C)c1.[F][Sb-]([F])([F])([F])([F])[F] [1-butyl-3-methylimidazolium hexafluoroantimonate]
3. CCCCn1cc[n+](C)c1.COS(=O)(=O)[O-] [1-butyl-3-methylimidazolium methyl sulfate]
4. CCCCn1cc[n+](C)c1.O=S(=O)([O-])C(F)(F)F [1-butyl-3-methylimidazolium trifluoromethanesulfonate]
5. CCCCn1cc[n+](C)c1.F[B-](F)(F)F [1-butyl-3-methylimidazolium tetrafluoroborate]

1: 0.000612 1/K; 2: 0.000589 1/K; 3: 0.000527 1/K; 4: 0.000575 1/K; 5: 0.000564 1/K

----------
Assay: isobaric coefficient of expansion
Conditions: 328.15 K; 30000 kPa; Liquid; Micro DSCII
property-measured: isobaric coefficient of expansion

Can you give me isobaric coefficient of expansion for all of these, one by one?
1. CCCCn1cc[n+](C)c1.COS(=O)(=O)[O-] [1-butyl-3-methylimidazolium methyl sulfate]
2. CCCCn1cc[n+](C)c1.F[B-](F)(F)F [1-butyl-3-methylimidazolium tetrafluoroborate]
3. CCCCn1cc[n+](C)c1.[F][Sb-]([F])([F])([F])([F])[F] [1-butyl-3-methylimidazolium hexafluoroantimonate]
4. CCCC[n+]1ccn(C)c1.O=S(=O)([N-]S(=O)(=O)C(F)(F)F)C(F)(F)F
5. CCCCn1cc[n+](C)c1.O=S(=O)([O-])C(F)(F)F [1-butyl-3-methylimidazolium trifluoromethanesulfonate]

0.000508 1/K
0.000544 1/K
0.000573 1/K
0.000603 1/K
0.000559 1/K

----------
Assignment: determine reported isobaric coefficient of expansion for the given compounds.
Assay: isobaric coefficient of expansion
Details: 278.15 K; 25000 kPa; Liquid; Micro DSCII

compound: CCCC[n+]1ccn(C)c1.O=S(=O)([N-]S(=O)(=O)C(F)(F)F)C(F)(F)F
readout-value: 0.000632 1/K
//
compound: CCCCn1cc[n+](C)c1.O=S(=O)([O-])C(F)(F)F [1-butyl-3-methylimidazolium trifluoromethanesulfonate]
readout-value: 0.00059 1/K
//
compound: CCCCn1cc[n+](C)c1.COS(=O)(=O)[O-] [1-butyl-3-methylimidazolium methyl sulfate]
readout-value: 0.00054 1/K
//
compound: CCCCn1cc[n+](C)c1.F[B-](F)(F)F [1-butyl-3-methylimidazolium tetrafluoroborate]
readout-value: 0.000581 1/K

I'd like to know its isobaric coefficient of expansion. The compound in question is CCCCn1cc[n+](C)c1.[F][Sb-]([F])([F])([F])([F])[F] [1-butyl-3-methylimidazolium hexafluoroantimonate]
0.000607 1/K

----------
Assay: isobaric coefficient of expansion
Conditions: 308.15 K; 45000 kPa; Liquid; Micro DSCII
property-measured: isobaric coefficient of expansion

compound: CCCCn1cc[n+](C)c1.COS(=O)(=O)[O-] [1-butyl-3-methylimidazolium methyl sulfate]
isobaric coefficient of expansion: 0.000504 1/K

compound: CCCCn1cc[n+](C)c1.[F][Sb-]([F])([F])([F])([F])[F] [1-butyl-3-methylimidazolium hexafluoroantimonate]
isobaric coefficient of expansion: 0.000563 1/K

compound: CCCCn1cc[n+](C)c1.F[B-](F)(F)F [1-butyl-3-methylimidazolium tetrafluoroborate]
isobaric coefficient of expansion: 0.000542 1/K

compound: CCCC[n+]1ccn(C)c1.O=S(=O)([N-]S(=O)(=O)C(F)(F)F)C(F)(F)F
isobaric coefficient of expansion: 0.000586 1/K

Please examine the following record next.
What does the record list as isobaric coefficient of expansion for CCCCn1cc[n+](C)c1.O=S(=O)([O-])C(F)(F)F [1-butyl-3-methylimidazolium trifluoromethanesulfonate] ?
0.000548 1/K

----------
Assay: isobaric coefficient of expansion
Settings: 338.15 K; 10000 kPa; Liquid; Micro DSCII
Exercise: for every item that follows, state its recorded isobaric coefficient of expansion.

molecule: CCCCn1cc[n+](C)c1.[F][Sb-]([F])([F])([F])([F])[F] [1-butyl-3-methylimidazolium hexafluoroantimonate]
property-measured: isobaric coefficient of expansion
readout-value: 0.000599 1/K
//
molecule: CCCC[n+]1ccn(C)c1.O=S(=O)([N-]S(=O)(=O)C(F)(F)F)C(F)(F)F
property-measured: isobaric coefficient of expansion
readout-value: 0.000635 1/K
//
molecule: CCCCn1cc[n+](C)c1.F[B-](F)(F)F [1-butyl-3-methylimidazolium tetrafluoroborate]
property-measured: isobaric coefficient of expansion
readout-value: 0.000566 1/K
//
molecule: CCCCn1cc[n+](C)c1.COS(=O)(=O)[O-] [1-butyl-3-methylimidazolium methyl sulfate]
property-measured: isobaric coefficient of expansion
readout-value: 0.000525 1/K

Would you kindly look at the next entry?
Look up isobaric coefficient of expansion for this molecule: CCCCn1cc[n+](C)c1.O=S(=O)([O-])C(F)(F)F [1-butyl-3-methylimidazolium trifluoromethanesulfonate]
0.000585 1/K

----------
Experiment: isobaric coefficient of expansion
Conditions: 328.15 K; 20000 kPa; Liquid; Micro DSCII
Answer each item with its documented isobaric coefficient of expansion.

compound: CCCCn1cc[n+](C)c1.F[B-](F)(F)F [1-butyl-3-methylimidazolium tetrafluoroborate]
isobaric coefficient of expansion: 0.000559 1/K
--
compound: CCCC[n+]1ccn(C)c1.O=S(=O)([N-]S(=O)(=O)C(F)(F)F)C(F)(F)F
isobaric coefficient of expansion: 0.000625 1/K

Hey, can you go through the list below and give me isobaric coefficient of expansion for every item?
1. CCCCn1cc[n+](C)c1.O=S(=O)([O-])C(F)(F)F [1-butyl-3-methylimidazolium trifluoromethanesulfonate]
2. CCCCn1cc[n+](C)c1.[F][Sb-]([F])([F])([F])([F])[F] [1-butyl-3-methylimidazolium hexafluoroantimonate]
3. CCCCn1cc[n+](C)c1.COS(=O)(=O)[O-] [1-butyl-3-methylimidazolium methyl sulfate]

1. 0.000574 1/K
2. 0.000589 1/K
3. 0.000519 1/K

----------
For each of the compounds below, state its isobaric coefficient of expansion.
Assay: isobaric coefficient of expansion
Conditions: 298.15 K; 40000 kPa; Liquid; Micro DSCII

Some solved cases for reference:
compound: CCCCn1cc[n+](C)c1.COS(=O)(=O)[O-] [1-butyl-3-methylimidazolium methyl sulfate]
property-measured: isobaric coefficient of expansion
readout-value: 0.000513 1/K
--
compound: CCCCn1cc[n+](C)c1.[F][Sb-]([F])([F])([F])([F])[F] [1-butyl-3-methylimidazolium hexafluoroantimonate]
property-measured: isobaric coefficient of expansion
readout-value: 0.000576 1/K
--
compound: CCCCn1cc[n+](C)c1.F[B-](F)(F)F [1-butyl-3-methylimidazolium tetrafluoroborate]
property-measured: isobaric coefficient of expansion
readout-value: 0.000552 1/K
--
compound: CCCCn1cc[n+](C)c1.O=S(=O)([O-])C(F)(F)F [1-butyl-3-methylimidazolium trifluoromethanesulfonate]
property-measured: isobaric coefficient of expansion
readout-value: 0.000559 1/K

What measured isobaric coefficient of expansion goes with CCCC[n+]1ccn(C)c1.O=S(=O)([N-]S(=O)(=O)C(F)(F)F)C(F)(F)F ?
0.000599 1/K

----------
Test: isobaric coefficient of expansion
Conditions: 278.15 K; 10000 kPa; Liquid; Micro DSCII
property-measured: isobaric coefficient of expansion

molecule: CCCCn1cc[n+](C)c1.O=S(=O)([O-])C(F)(F)F [1-butyl-3-methylimidazolium trifluoromethanesulfonate]
isobaric coefficient of expansion: 0.000612 1/K
//
molecule: CCCC[n+]1ccn(C)c1.O=S(=O)([N-]S(=O)(=O)C(F)(F)F)C(F)(F)F
isobaric coefficient of expansion: 0.000661 1/K
//
molecule: CCCCn1cc[n+](C)c1.[F][Sb-]([F])([F])([F])([F])[F] [1-butyl-3-methylimidazolium hexafluoroantimonate]
isobaric coefficient of expansion: 0.000627 1/K
//
molecule: CCCCn1cc[n+](C)c1.F[B-](F)(F)F [1-butyl-3-methylimidazolium tetrafluoroborate]
isobaric coefficient of expansion: 0.0006 1/K

Let us examine a further case.
Sample CCCCn1cc[n+](C)c1.COS(=O)(=O)[O-] [1-butyl-3-methylimidazolium methyl sulfate] — what was its isobaric coefficient of expansion?
0.000556 1/K

----------
Assay: isobaric coefficient of expansion
Settings: 318.15 K; 25000 kPa; Liquid; Micro DSCII
property-measured: isobaric coefficient of expansion

molecule: CCCCn1cc[n+](C)c1.O=S(=O)([O-])C(F)(F)F [1-butyl-3-methylimidazolium trifluoromethanesulfonate]
isobaric coefficient of expansion: 0.000571 1/K

The following molecules each have a reported value; give each one's isobaric coefficient of expansion.
1. CCCC[n+]1ccn(C)c1.O=S(=O)([N-]S(=O)(=O)C(F)(F)F)C(F)(F)F
2. CCCCn1cc[n+](C)c1.[F][Sb-]([F])([F])([F])([F])[F] [1-butyl-3-methylimidazolium hexafluoroantimonate]
3. CCCCn1cc[n+](C)c1.F[B-](F)(F)F [1-butyl-3-methylimidazolium tetrafluoroborate]
4. CCCCn1cc[n+](C)c1.COS(=O)(=O)[O-] [1-butyl-3-methylimidazolium methyl sulfate]

0.000614 1/K
0.000584 1/K
0.000558 1/K
0.000517 1/K
